These measurements were taken from paper PMC4052532.

assay: Biodistribution studies; format: in vivo; conditions: female, BALB/c nude, mouse, liver, total radioactivity; Blocking (1 h), coinjection of unlabelled NGR 20 mg/kg, n = 5, mean ± SD; read-out: Liver uptake
Where a SMILES comes first, the peptide text is derived from it. Bridges are numbered along the chain shown (N, C = ends).
measurement type: tissue uptake at 1 h
// return the numeric value with its unit appended

Input line: Let me know recorded tissue uptake at 1 h for N=C(N)NCCC[C@@H]1NC(=O)CNC(=O)[C@H](CC(N)=O)NC(=O)[C@@H](NC(=O)CNC(=O)CNC(=O)[C@@H](N)Cc2ccc(O)cc2)CSSC[C@@H](C(=O)O)NC1=O [^99mTc-NGR, metal not drawn] (H-YGGCNGRC-OH; disulfide 4-8) , thanks.
Output line: 3.27 %ID/g

---

assay: Biodistribution studies; assay type: in vivo; conditions: female, BALB/c nude, mouse, muscle, iv, total radioactivity; 8 h postinjection, ~7.4 MBq i.v., n = 5, mean ± SD; read-out: Muscle uptake
Where a SMILES comes first, the peptide text is derived from it. Bridges are numbered along the chain shown (N, C = ends).
measurement type: tissue uptake at 8 h (%ID/g)
Express your answer in %ID/g, writing the number without its unit.

Input line: Let me know recorded tissue uptake at 8 h for N=C(N)NCCC[C@@H]1NC(=O)CNC(=O)[C@H](CC(N)=O)NC(=O)[C@@H](NC(=O)CNC(=O)CNC(=O)[C@@H](N)Cc2ccc(O)cc2)CSSC[C@@H](C(=O)O)NC1=O [^99mTc-NGR, metal not drawn] (H-YGGCNGRC-OH; disulfide 4-8) , thanks.
Output line: 0.43

---

assay: Biodistribution studies; format: in vivo; settings: female, BALB/c nude, mouse, muscle, iv, total radioactivity; 4 h postinjection, ~7.4 MBq i.v., n = 5, mean ± SD; read-out: Muscle uptake
Where a SMILES comes first, the peptide text is derived from it. Bridges are numbered along the chain shown (N, C = ends).
measurement type: tissue uptake at 4 h (%ID/g)
Express your answer in %ID/g, writing the number without its unit.

Input line: Let me know recorded tissue uptake at 4 h for N=C(N)NCCC[C@@H]1NC(=O)CNC(=O)[C@H](CC(N)=O)NC(=O)[C@@H](NC(=O)CNC(=O)CNC(=O)[C@@H](N)Cc2ccc(O)cc2)CSSC[C@@H](C(=O)O)NC1=O [^99mTc-NGR, metal not drawn] (H-YGGCNGRC-OH; disulfide 4-8) , thanks.
Output line: 0.46

---

assay: Biodistribution studies; assay type: in vivo; details: female, BALB/c nude, mouse, tumor/liver, iv, 7.4 MBq, total radioactivity; 1 h postinjection; read-out: Tumor-to-normal tissue uptake ratio T/L
Where a SMILES comes first, the peptide text is derived from it. Bridges are numbered along the chain shown (N, C = ends).
measurement type: tissue to tissue ratio at 1 h
Please respond with just the number, no unit label.

Input line: Let me know recorded tissue to tissue ratio at 1 h for N=C(N)NCCC[C@@H]1NC(=O)CNC(=O)[C@H](CC(N)=O)NC(=O)[C@@H](NC(=O)CNC(=O)CNC(=O)[C@@H](N)Cc2ccc(O)cc2)CSSC[C@@H](C(=O)O)NC1=O [^99mTc-NGR, metal not drawn] (H-YGGCNGRC-OH; disulfide 4-8) , thanks.
Output line: 0.62

---

Assay: Biodistribution studies
Format: in vivo
Details: female, BALB/c nude, mouse, kidney, iv, total radioactivity; 12 h postinjection, ~7.4 MBq i.v., n = 5, mean ± SD; read-out: Kidney uptake
Protocol: HepG2 cells were grown in high glucose DMEM culture medium. […] Nude mice bearing human HepG2 hepatoma were randomly divided into 5 groups and injected with ~7.4 MBq of ^99mTc-NGR with or without excess unlabelled NGR peptide (20 mg/kg). […] The radioactivity in the HepG2 tumor, major organs, and muscle were collected and weighed wet with tubes (%ID/g). Mean uptake (%ID/g) for a group of animals was calculated with standard deviations. Values were expressed as mean ± SD (n = 5/group).
Where a SMILES comes first, the peptide text is derived from it. Bridges are numbered along the chain shown (N, C = ends).
measurement type: tissue uptake at 12 h (%ID/g)
Express your answer in %ID/g, writing the number without its unit.

Input line: Let me know recorded tissue uptake at 12 h for N=C(N)NCCC[C@@H]1NC(=O)CNC(=O)[C@H](CC(N)=O)NC(=O)[C@@H](NC(=O)CNC(=O)CNC(=O)[C@@H](N)Cc2ccc(O)cc2)CSSC[C@@H](C(=O)O)NC1=O [^99mTc-NGR, metal not drawn] (H-YGGCNGRC-OH; disulfide 4-8) , thanks.
Output line: 5.96

---

assay: Biodistribution studies; format: in vivo; settings: female, BALB/c nude, mouse, iv, total radioactivity; HepG2 tumor, 4 h postinjection, ~7.4 MBq i.v., n = 5, mean ± SD; read-out: Tumor uptake
Where a SMILES comes first, the peptide text is derived from it. Bridges are numbered along the chain shown (N, C = ends).
measurement type: tissue uptake at 4 h (%ID/g)
Express your answer in %ID/g, writing the number without its unit.

Input line: Let me know recorded tissue uptake at 4 h for N=C(N)NCCC[C@@H]1NC(=O)CNC(=O)[C@H](CC(N)=O)NC(=O)[C@@H](NC(=O)CNC(=O)CNC(=O)[C@@H](N)Cc2ccc(O)cc2)CSSC[C@@H](C(=O)O)NC1=O [^99mTc-NGR, metal not drawn] (H-YGGCNGRC-OH; disulfide 4-8) , thanks.
Output line: 3.03

---

experiment: Biodistribution studies; type: in vivo; conditions: female, BALB/c nude, mouse, blood, iv, total radioactivity; 8 h postinjection, ~7.4 MBq i.v., n = 5, mean ± SD; read-out: Blood uptake
Where a SMILES comes first, the peptide text is derived from it. Bridges are numbered along the chain shown (N, C = ends).
measurement type: tissue uptake at 8 h
// return the numeric value with its unit appended

Input line: Let me know recorded tissue uptake at 8 h for N=C(N)NCCC[C@@H]1NC(=O)CNC(=O)[C@H](CC(N)=O)NC(=O)[C@@H](NC(=O)CNC(=O)CNC(=O)[C@@H](N)Cc2ccc(O)cc2)CSSC[C@@H](C(=O)O)NC1=O [^99mTc-NGR, metal not drawn] (H-YGGCNGRC-OH; disulfide 4-8) , thanks.
Output line: 0.98 %ID/g

---

test: Biodistribution studies; type: in vivo; settings: female, BALB/c nude, mouse, liver, iv, total radioactivity; 12 h postinjection, ~7.4 MBq i.v., n = 5, mean ± SD; read-out: Liver uptake
Where a SMILES comes first, the peptide text is derived from it. Bridges are numbered along the chain shown (N, C = ends).
measurement type: tissue uptake at 12 h (%ID/g)
Express your answer in %ID/g, writing the number without its unit.

Input line: Let me know recorded tissue uptake at 12 h for N=C(N)NCCC[C@@H]1NC(=O)CNC(=O)[C@H](CC(N)=O)NC(=O)[C@@H](NC(=O)CNC(=O)CNC(=O)[C@@H](N)Cc2ccc(O)cc2)CSSC[C@@H](C(=O)O)NC1=O [^99mTc-NGR, metal not drawn] (H-YGGCNGRC-OH; disulfide 4-8) , thanks.
Output line: 3.26

---

test: Biodistribution studies; type: in vivo; details: female, BALB/c nude, mouse, spleen, iv, total radioactivity; 8 h postinjection, ~7.4 MBq i.v., n = 5, mean ± SD; read-out: Spleen uptake
Where a SMILES comes first, the peptide text is derived from it. Bridges are numbered along the chain shown (N, C = ends).
measurement type: tissue uptake at 8 h (%ID/g)
Express your answer in %ID/g, writing the number without its unit.

Input line: Let me know recorded tissue uptake at 8 h for N=C(N)NCCC[C@@H]1NC(=O)CNC(=O)[C@H](CC(N)=O)NC(=O)[C@@H](NC(=O)CNC(=O)CNC(=O)[C@@H](N)Cc2ccc(O)cc2)CSSC[C@@H](C(=O)O)NC1=O [^99mTc-NGR, metal not drawn] (H-YGGCNGRC-OH; disulfide 4-8) , thanks.
Output line: 1.88

---

experiment: Biodistribution studies; type: in vivo; settings: female, BALB/c nude, mouse, kidney, iv, total radioactivity; 4 h postinjection, ~7.4 MBq i.v., n = 5, mean ± SD; read-out: Kidney uptake
Where a SMILES comes first, the peptide text is derived from it. Bridges are numbered along the chain shown (N, C = ends).
measurement type: tissue uptake at 4 h
// return the numeric value with its unit appended

Input line: Let me know recorded tissue uptake at 4 h for N=C(N)NCCC[C@@H]1NC(=O)CNC(=O)[C@H](CC(N)=O)NC(=O)[C@@H](NC(=O)CNC(=O)CNC(=O)[C@@H](N)Cc2ccc(O)cc2)CSSC[C@@H](C(=O)O)NC1=O [^99mTc-NGR, metal not drawn] (H-YGGCNGRC-OH; disulfide 4-8) , thanks.
Output line: 7.03 %ID/g

---

assay: Biodistribution studies; format: in vivo; settings: female, BALB/c nude, mouse, heart, iv, total radioactivity; 12 h postinjection, ~7.4 MBq i.v., n = 5, mean ± SD; read-out: Heart uptake
Where a SMILES comes first, the peptide text is derived from it. Bridges are numbered along the chain shown (N, C = ends).
measurement type: tissue uptake at 12 h (%ID/g)
Express your answer in %ID/g, writing the number without its unit.

Input line: Let me know recorded tissue uptake at 12 h for N=C(N)NCCC[C@@H]1NC(=O)CNC(=O)[C@H](CC(N)=O)NC(=O)[C@@H](NC(=O)CNC(=O)CNC(=O)[C@@H](N)Cc2ccc(O)cc2)CSSC[C@@H](C(=O)O)NC1=O [^99mTc-NGR, metal not drawn] (H-YGGCNGRC-OH; disulfide 4-8) , thanks.
Output line: 1.07
